The values you see were collected from ChEMBL document CHEMBL4428077.

TEST: Drug level in Sprague-Dawley rat plasma at 3 mg/kg, po qd for 5 days measured 2 hrs post last dose by LC-MS/MS analysis
Format: ADME, organism-based
READOUT_LABEL: concentration at 2 h

INPUT: Which concentration at 2 h value is on record for Cl.Cn1cc(S(=O)(=O)N2CCN(C3(CNC(=O)c4ccc(C(F)(F)F)cc4Cl)CCC(F)(F)CC3)CC2)nn1 ?
OUTPUT: 122 nM

====

TEST: Cmax in Sprague-Dawley rat plasma at 10 mg/kg, po administered as single dose by LC-MS/MS analysis
Assay type: ADME, organism-based
Design: dose 10 mg/kg, route oral
READOUT_LABEL: Cmax (ng/mL)
Only the number, expressed in ng/mL, is required.

INPUT: Which Cmax value is on record for CC(NC(=O)c1ccc(C(F)(F)F)cc1Cl)C1(N2CCN(S(=O)(=O)c3cn(C)nn3)CC2)CCC(F)(F)CC1.Cl (single isomer, unassigned; (+)) ?
OUTPUT: 352

====

TEST: Apparent permeability from basolateral to apical side in human Caco2 cells
Type: ADME, cell-based
MEASUREMENT_CONTEXT: Caco-2
READOUT_LABEL: Papp B→A (×10⁻⁶ cm/s)
Only the number, expressed in ×10⁻⁶ cm/s, is required.

INPUT: Which Papp B→A value is on record for CC(NC(=O)c1ccc(C(F)(F)F)cc1Cl)C1(N2CCN(S(=O)(=O)c3cn(C)nn3)CC2)CCC(F)(F)CC1.Cl (single isomer, unassigned; (+)) ?
OUTPUT: 47.4

====

TEST: Drug level in cynomolgus monkey plasma at 10 mg/kg, po measured at 24 hrs post dose by LC-MS/MS analysis
Type: ADME, organism-based, Macaca fascicularis
READOUT_LABEL: concentration at 24 h
Kindly format the answer as number then unit.

INPUT: Which concentration at 24 h value is on record for CC(NC(=O)c1ccc(C(F)(F)F)cc1Cl)C1(N2CCN(S(=O)(=O)c3cn(C)nn3)CC2)CCC(F)(F)CC1.Cl (single isomer, unassigned; (+)) ?
OUTPUT: 10.3 ng/mL

====

TEST: AUClast in Sprague-Dawley rat plasma at 10 mg/kg, po or 2 mg/kg, iv administered as single dose measured up to 24 hrs post dose by LC-MS/MS analysis
Assay type: ADME, organism-based
READOUT_LABEL: AUC(0-t) at 24 h

INPUT: Which AUC(0-t) at 24 h value is on record for CC(NC(=O)c1ccc(C(F)(F)F)cc1Cl)C1(N2CCN(S(=O)(=O)c3cn(C)nn3)CC2)CCC(F)(F)CC1.Cl (single isomer, unassigned; (+)) ?
OUTPUT: 1960 ng·h/mL

====

Catalogue of molecules with associated remaining at 0.25 h, 3 µM
TEST: Metabolic stability in rat liver microsomes assessed as parent compound remaining at 3 uM incubated for 15 mins by LC-MS analysis
Type: ADME, Microsome
MEASUREMENT_CONTEXT: liver microsomes, read-out: Stability
Only the number, expressed in %, is required.

// known answers, use as guide
| MOL | UNIT_ABBREVIATION | remaining at 0.25 h, 3 µM |
| --- | --- | --- |
| Cn1cnc(S(=O)(=O)N2CCN(C3(CNC(=O)c4ccc(Cl)cc4Cl)CCC(F)(F)CC3)CC2)c1 | % | 88 |
| Cn1cnc(S(=O)(=O)N2CCN(C3(CNC(=O)c4c(F)cccc4F)CCC(F)(F)CC3)CC2)c1 | % | 92 |
| Cn1cnc(S(=O)(=O)N2CCN(C3(CNC(=O)c4ccc(F)cc4Cl)CCC(F)(F)CC3)CC2)c1 | % | 100 |
| Cn1cc(S(=O)(=O)N2CCN(C3(CNC(=O)c4ccc(F)cc4Cl)CCC(F)(F)CC3)CC2)nn1 | % | 100 |
| Cn1cc(S(=O)(=O)N2CCN(C3(CNC(=O)c4c(F)cccc4F)CCC(F)(F)CC3)CC2)nn1 | % | 95 |
| Cn1cnc(S(=O)(=O)N2CCN(C3(CNC(=O)c4ccc(C(F)(F)F)cc4Cl)CCC(F)(F)CC3)CC2)c1 | % | 90 |
| Cn1cc(S(=O)(=O)N2CCN(C3(CNC(=O)c4ccc(Cl)cc4Cl)CCC(F)(F)CC3)CC2)nn1 | % | 80 |

# evaluate next
INPUT: Which remaining at 0.25 h, 3 µM value is on record for Cn1cc(S(=O)(=O)N2CCN(C3(CNC(=O)c4c(Cl)cccc4Cl)CCC(F)(F)CC3)CC2)nn1 ?
OUTPUT: 91

====

MEASUREMENT_TARGET: Sodium- and chloride-dependent glycine transporter 1 (Homo sapiens, UniProt P48067)
Sequence (P48067 whole entry): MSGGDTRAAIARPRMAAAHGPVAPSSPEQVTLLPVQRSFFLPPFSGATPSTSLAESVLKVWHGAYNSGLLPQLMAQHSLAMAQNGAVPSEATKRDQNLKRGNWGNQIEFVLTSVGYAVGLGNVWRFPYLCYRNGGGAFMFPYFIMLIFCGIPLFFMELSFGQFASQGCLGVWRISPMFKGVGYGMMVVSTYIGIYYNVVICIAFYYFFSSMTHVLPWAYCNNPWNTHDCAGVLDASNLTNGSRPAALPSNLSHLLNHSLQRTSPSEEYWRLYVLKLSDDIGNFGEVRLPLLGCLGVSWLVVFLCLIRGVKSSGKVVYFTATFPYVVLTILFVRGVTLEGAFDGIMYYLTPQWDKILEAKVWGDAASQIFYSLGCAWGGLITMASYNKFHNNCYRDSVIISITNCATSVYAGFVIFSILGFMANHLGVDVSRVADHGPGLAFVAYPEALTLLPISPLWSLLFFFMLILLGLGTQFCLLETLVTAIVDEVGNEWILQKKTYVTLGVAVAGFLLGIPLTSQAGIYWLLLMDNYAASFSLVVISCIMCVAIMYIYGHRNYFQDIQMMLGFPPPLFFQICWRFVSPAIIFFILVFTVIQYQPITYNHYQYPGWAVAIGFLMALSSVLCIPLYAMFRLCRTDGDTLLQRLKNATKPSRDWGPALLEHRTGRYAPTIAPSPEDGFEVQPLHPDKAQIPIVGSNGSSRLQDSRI
TEST: Inhibition of glycine transporter-1B in human JAR cells assessed as reduction in [14C]glycine uptake preincubated for 10 mins followed by [14C]glycine addition measured after 3 hrs by scintillation proximity assay
Flag rule - IC50 less than 2 nM flags MET; the remaining entries get NOT MET.

| MOLECULE | DISCRETE_LABEL |
| --- | --- |
| Cn1cc(S(=O)(=O)N2CCN(C3(CNC(=O)c4c(Cl)cccc4Cl)CCC(F)(F)CC3)CC2)nn1 | MET |

INPUT: Could you please tell me whether IC50 recorded for Cn1cc(S(=O)(=O)N2CCN(C3(CNC(=O)c4c(Cl)cccc4OC(F)(F)F)CCC(F)(F)CC3)CC2)nn1 is less than 2 nM?
OUTPUT: MET

INPUT: Could you please tell me whether IC50 recorded for Nc1cccc(Cl)c1C(=O)NCC1(N2CCN(S(=O)(=O)Cc3ccccc3)CC2)CCCCC1 is less than 2 nM?
OUTPUT: NOT MET

INPUT: Could you please tell me whether IC50 recorded for Cn1cc(S(=O)(=O)N2CCN(C3(CNC(=O)c4ccc(C(F)(F)F)cc4C(F)(F)F)CCC(F)(F)CC3)CC2)nn1 is less than 2 nM?
OUTPUT: MET

====

MEASUREMENT_TARGET: Sodium- and chloride-dependent glycine transporter 1 (Homo sapiens)
TEST: Inhibition of glycine transporter-1B in human JAR cells assessed as reduction in [14C]glycine uptake preincubated for 10 mins followed by [14C]glycine addition measured after 3 hrs by scintillation proximity assay
Catalogue of compounds with associated pIC50
The read-out pIC50 is expressed as -log10 of concentration in moles per litre.

// known answers, use as guide
| COMPOUND | RESULT_NUMBER |
| --- | --- |
| CCCS(=O)(=O)N1CCN(C2(CNC(=O)c3c(Cl)cccc3Cl)CCC(F)(F)CC2)CC1 | 7.37 |
| Cn1cnc(S(=O)(=O)N2CCN(C3(CNC(=O)c4ccc(F)cc4Cl)CCC(F)(F)CC3)CC2)c1 | 8.29 |
| Cn1cnc(S(=O)(=O)N2CCN(C3(CNC(=O)c4c(Cl)cccc4Cl)CCC(F)(F)CC3)CC2)c1 | 8.25 |
| Cn1cnc(S(=O)(=O)N2CCN(C3(CNC(=O)c4ccc(C(F)(F)F)cc4Cl)CCC(F)(F)CC3)CC2)c1 | 8.63 |
| Cn1cc(S(=O)(=O)N2CCN(C3(CNC(=O)c4ccc(F)cc4Cl)CCC(F)(F)CC3)CC2)nn1 | 8.94 |
| CCCS(=O)(=O)N1CCN(C2(CNC(=O)c3c(C)cc(F)cc3OC)CCC(F)(F)CC2)CC1 | 7.55 |

INPUT: Param readout= pIC50; system= Sodium- and chloride-dependent glycine transporter 1 (Homo sapiens); entry= Cn1cc(S(=O)(=O)N2CCN(C3(CNC(=O)c4c(F)cccc4F)CCC(F)(F)CC3)CC2)nn1 ; returns value.
OUTPUT: 8.29

INPUT: Param readout= pIC50; system= Sodium- and chloride-dependent glycine transporter 1 (Homo sapiens); entry= Cn1cc(S(=O)(=O)N2CCN(C3(CNC(=O)c4ccc(Cl)cc4Cl)CCCCC3)CC2)cn1 ; returns value.
OUTPUT: 6.84

INPUT: Param readout= pIC50; system= Sodium- and chloride-dependent glycine transporter 1 (Homo sapiens); entry= Cn1cnc(S(=O)(=O)N2CCN(C3(CNC(=O)c4ccc(Cl)cc4Cl)CCCCC3)CC2)c1 ; returns value.
OUTPUT: 8.67

INPUT: Param readout= pIC50; system= Sodium- and chloride-dependent glycine transporter 1 (Homo sapiens); entry= Cn1cc(S(=O)(=O)N2CCN(C3(CNC(=O)c4ccc(Cl)cc4Cl)CCC(F)(F)CC3)CC2)nn1 ; returns value.
OUTPUT: 8.91

====

Catalogue of compounds with associated pIC50
MEASUREMENT_TARGET: Sodium- and chloride-dependent glycine transporter 1 (Homo sapiens, UniProt P48067)
TEST: Inhibition of glycine transporter-1B in human JAR cells assessed as reduction in [14C]glycine uptake preincubated for 10 mins followed by [14C]glycine addition measured after 3 hrs by scintillation proximity assay
The read-out pIC50 is expressed as -log10 of concentration in moles per litre.

| COMPOUND | pIC50 |
| --- | --- |
| CC(NC(=O)c1ccc(C(F)(F)F)cc1Cl)C1(N2CCN(S(=O)(=O)c3cn(C)nn3)CC2)CCC(F)(F)CC1.Cl (racemic) | 8.99 |

INPUT: Which pIC50 value is on record for CCCS(=O)(=O)N1CCN(C2(CNC(=O)c3ccc(F)cc3Cl)CCC(F)(F)CC2)CC1 ?
OUTPUT: 7.42

INPUT: Which pIC50 value is on record for CCCS(=O)(=O)N1CCN(C2(CNC(=O)c3ccc(C(F)(F)F)cc3C(F)(F)F)CCC(F)(F)CC2)CC1 ?
OUTPUT: 8.08

INPUT: Which pIC50 value is on record for Cn1cnc(S(=O)(=O)N2CCN(C3(CNC(=O)c4c(Cl)cccc4OC(F)(F)F)CCC(F)(F)CC3)CC2)c1 ?
OUTPUT: 8.83

INPUT: Which pIC50 value is on record for Cl.Cn1cc(S(=O)(=O)N2CCN(C3(CNC(=O)c4ccc(C(F)(F)F)cc4Cl)CCC(F)(F)CC3)CC2)nn1 ?
OUTPUT: 9.17

INPUT: Which pIC50 value is on record for CCCS(=O)(=O)N1CCN(C2(CNC(=O)c3ccc(C(F)(F)F)cc3Cl)CCC(F)(F)CC2)CC1 ?
OUTPUT: 7.90

INPUT: Which pIC50 value is on record for Cn1cnc(S(=O)(=O)N2CCN(C3(CNC(=O)c4c(F)cccc4F)CCC(F)(F)CC3)CC2)c1 ?
OUTPUT: 7.74

INPUT: Which pIC50 value is on record for Cn1cc(S(=O)(=O)N2CCN(C3(CNC(=O)c4ccc(Cl)cc4Cl)CCCCC3)CC2)nn1 ?
OUTPUT: 8.81
